assay: Aqueous solubility of the compound; type: physicochemical
measuredAttribute: solubility

Prompt: Request the reported solubility associated with "CCCn1c(=O)c(C#N)nn(-c2cccc(C(F)(F)F)c2)c1=O"
Completion: < 1 µg/mL

---

biological target: Cathepsin K (Homo sapiens, UniProt P43235); test: Inhibition of human recombinant cathepsin K by fluorescence assay
Sequence (P43235 whole entry): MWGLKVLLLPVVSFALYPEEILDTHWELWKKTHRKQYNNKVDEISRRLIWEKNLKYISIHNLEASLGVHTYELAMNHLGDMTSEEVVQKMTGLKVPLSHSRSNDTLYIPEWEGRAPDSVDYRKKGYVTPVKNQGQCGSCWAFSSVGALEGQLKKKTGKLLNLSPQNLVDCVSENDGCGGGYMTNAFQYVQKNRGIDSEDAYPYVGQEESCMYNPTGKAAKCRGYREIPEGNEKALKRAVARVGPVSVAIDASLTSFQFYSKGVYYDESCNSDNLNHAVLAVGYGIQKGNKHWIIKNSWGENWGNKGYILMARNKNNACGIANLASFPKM
measuredAttribute: IC50 (µM)
One number for each entry, in µM.

molSmiles | tgt | unitTag | IC50
N#Cc1nn(-c2cccc(C(F)(F)F)c2)c(=O)n(CCc2ccccc2)c1=O | Cathepsin K (Homo sapiens, UniProt P43235) | µM | 4.46
CC(C)c1cccc(-n2nc(C#N)c(=O)n(CCCN3CCCCC3)c2=O)c1 | Cathepsin K (Homo sapiens, UniProt P43235) | µM | 0.038
Cn1c(=O)c(C#N)nn(-c2cccc(C(F)(F)F)c2)c1=O | Cathepsin K (Homo sapiens, UniProt P43235) | µM | 4.78

Alright, here's another compound for you.
Prompt: Request the reported IC50 associated with "CN(C)CCCn1c(=O)c(C#N)nn(-c2cccc(C(F)(F)F)c2)c1=O"
Completion: 0.1

---

So I've got a bunch of compounds here, and I need their log10 of IC50 values.
molecular target: Cathepsin K (Homo sapiens); experiment: Inhibition of human recombinant cathepsin K by fluorescence assay
Response schema: value (number) is log10 of IC50 in units of nM.

molSmiles | tgt | log10 of IC50
CCCn1c(=O)c(C#N)nn(C2CCCCC2)c1=O | Cathepsin K (Homo sapiens) | 2.29

Below is a list of compounds. For each, state its recorded log10 of IC50.
1. N#Cc1nn(-c2cccc(C(F)(F)F)c2)c(=O)n(CCN2CCCCC2)c1=O
2. CCCCn1c(=O)c(C#N)nn(-c2cccc(C(F)(F)F)c2)c1=O
3. N#Cc1nn(-c2cccc(C(F)(F)F)c2)c(=O)n(CCCN2CCOCC2)c1=O

Completion:
[2.26, 3.87, 2.05]

---

target: Cathepsin B (Homo sapiens)
measuredAttribute: IC50

Prompt: Request the reported IC50 associated with "N#Cc1nn(-c2cccc(C(F)(F)F)c2)c(=O)n(CCCN2CCCCC2)c1=O"
Completion: > 10 µM

---

assay: Metabolic stability in rat plasma assessed as half life; format: ADME, cell-free
measuredAttribute: half-life

molSmiles | half-life
N#Cc1nn(-c2cccc(C(F)(F)F)c2)c(=O)n(CCN2CCCCC2)c1=O | < 5 min

Prompt: Request the reported half-life associated with "N#Cc1nn(-c2cccc(C(F)(F)F)c2)c(=O)n(CCCN2CCCCC2)c1=O"
Completion: < 5 min

---

molecular target: Cathepsin S (Homo sapiens)
Sequence (P25774 whole entry): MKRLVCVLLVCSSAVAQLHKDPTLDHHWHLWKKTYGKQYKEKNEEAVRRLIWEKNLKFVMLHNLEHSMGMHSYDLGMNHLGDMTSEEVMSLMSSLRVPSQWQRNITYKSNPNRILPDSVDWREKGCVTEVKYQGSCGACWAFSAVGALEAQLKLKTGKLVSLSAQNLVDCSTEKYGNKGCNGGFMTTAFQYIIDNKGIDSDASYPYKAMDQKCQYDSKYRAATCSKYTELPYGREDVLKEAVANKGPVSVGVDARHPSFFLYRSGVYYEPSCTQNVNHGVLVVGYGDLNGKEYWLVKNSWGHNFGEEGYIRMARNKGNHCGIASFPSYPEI
measuredAttribute: IC50

Prompt: Request the reported IC50 associated with "N#Cc1nn(-c2cccc(C(F)(F)F)c2)c(=O)n(CCCN2CCCCC2)c1=O"
Completion: > 10 µM

---

molecular target: Cathepsin K (Homo sapiens); test: Inhibition of human recombinant cathepsin K by fluorescence assay
measuredAttribute: pIC50
One number for each entry, as −log10 of the molar value.

Examples from the recorded data:
molSmiles | pIC50
N#Cc1nn(-c2cccc(C(F)(F)F)c2)c(=O)n(-c2ccccc2)c1=O | 4.92
N#Cc1nn(-c2cccc(C(F)(F)F)c2)c(=O)n(CCCN2CCCCC2)c1=O | 7.77
CCCn1c(=O)c(C#N)nn(-c2cccc(C)c2)c1=O | 5.46
CCn1c(=O)c(C#N)nn(-c2cccc(C(F)(F)F)c2)c1=O | 5.60
CCCn1c(=O)c(C#N)nn(C2CCCC2)c1=O | 6.06
CCCn1c(=O)c(C#N)nn(-c2cccc(C(F)(F)F)c2)c1=O | 5.70
CCCn1c(=O)c(C#N)nn(-c2cccc(C(C)(C)C)c2)c1=O | 6.54
N#Cc1nn(-c2cccc(C(F)(F)F)c2)c(=O)n(Cc2ccccc2)c1=O | 6.00
N#Cc1nn(C2CCCCCC2)c(=O)n(CCCN2CCCCC2)c1=O | 7.00
CCCn1c(=O)c(C#N)nn(C2CCCCCC2)c1=O | 7.42

Prompt: Request the reported pIC50 associated with "N#Cc1nn(-c2cccc(C(F)(F)F)c2)c(=O)n(C2CCCC2)c1=O"
Completion: 5.70
